- Subject Of Test: human HER3 endogenously expressed on human cancer cells (SK-Br-3, BT-474, MCF7) (human, UniProt P21860 20-1342)
- Assay Remarks: cell-based or functional assay
Catalogue of binders with associated SK-Br-3 pHER3 IC50
Write the answer as a number in pM, unit excluded.

Below, each entry is followed by its recorded SK-Br-3 pHER3 IC50 result.
Binder: MOR13660 (antibody, human IgG1, lambda, V domains shown) VH: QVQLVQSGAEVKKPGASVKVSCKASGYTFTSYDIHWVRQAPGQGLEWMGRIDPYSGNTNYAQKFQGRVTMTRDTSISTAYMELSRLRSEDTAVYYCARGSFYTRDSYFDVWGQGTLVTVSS VL: DIALTQPASVSGSPGQSITISCTGTSSDVGTYNQVSWYQQHPGKAPKLMIYGVSKRPSGVSNRFSGSKSGNTASLTISGLQAEDEADYYCAVRGSQTLVFGGGTKLTVLG
Reading: 188
//
Binder: MOR12514 (antibody, human IgG1, lambda, V domains shown, Tested as IgG) VH: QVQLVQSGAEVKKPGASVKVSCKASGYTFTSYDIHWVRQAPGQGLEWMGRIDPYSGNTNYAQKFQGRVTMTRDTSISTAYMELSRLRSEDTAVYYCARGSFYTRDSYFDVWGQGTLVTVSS VL: DIALTQPASVSGSPGQSITISCTGTSSDVGTYNQVSWYQQHPGKAPKLMIYGVSKRPSGVSNRFSGSKSGNTASLTISGLQAEDEADYYCQVRDMSLFDVFGGGTKLTVLG
Reading: 223
//
Binder: MOR13658 (antibody, human IgG1, lambda, V domains shown, Tested as IgG) VH: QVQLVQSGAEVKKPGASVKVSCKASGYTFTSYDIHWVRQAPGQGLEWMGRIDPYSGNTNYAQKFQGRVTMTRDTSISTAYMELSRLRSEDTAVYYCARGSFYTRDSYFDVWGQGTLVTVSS VL: DIALTQPASVSGSPGQSITISCTGTSSDVGTYNQVSWYQQHPGKAPKLMIYGVSKRPSGVSNRFSGSKSGNTASLTISGLQAEDEADYYCASADHSYHTVFGGGTKLTVLG
Reading: 347
//
Binder: MOR12516 (antibody, human IgG1, lambda, V domains shown, Tested as IgG) VH: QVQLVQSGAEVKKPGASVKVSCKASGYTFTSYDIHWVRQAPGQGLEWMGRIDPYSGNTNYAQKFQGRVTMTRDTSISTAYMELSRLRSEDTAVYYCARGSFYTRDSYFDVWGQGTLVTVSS VL: DIALTQPASVSGSPGQSITISCTGTSSDVGTYNQVSWYQQHPGKAPKLMIYGVSKRPSGVSNRFSGSKSGNTASLTISGLQAEDEADYYCQSRDTYRPVKVFGGGTKLTVLG
Reading: 1870

Then there is this binder:
Look up SK-Br-3 pHER3 IC50: MOR14534 (antibody, human IgG1, kappa, V domains shown, Tested as IgG) VH: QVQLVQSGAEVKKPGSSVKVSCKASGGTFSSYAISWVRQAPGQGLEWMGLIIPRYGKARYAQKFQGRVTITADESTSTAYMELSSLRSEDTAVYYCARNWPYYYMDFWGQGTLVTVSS VL: EIVLTQSPATLSLSPGERATLSCRASQNIVFNLAWYQQKPGQAPRLLIYDASNRATGIPARFSGSGSGTDFTLTISSLEPEDFAVYYCQQTKNRPPTFGQGTKVEIKR
10
